- Tested on: adiponectin promoter
- measurement-description: cells
- Type: cell-based, human
- particulars: Mus musculus, C2C12, 48 h, read-out: activation ratio
Measured fold induction at 100 µM values are reported for all entries that follow.
measured-attribute: fold induction at 100 µM

compound="O=c1c(-c2ccc(O)cc2)coc2cc(O)ccc12 [Daidzein, daidzein, reference compound]" test_system="adiponectin promoter" numeric_readout=3.71
compound="O=c1c(-c2ccc(O)cc2)coc2cc(O)cc(O)c12 [Genistein, genistein, reference compound]" test_system="adiponectin promoter" numeric_readout=1.75
compound=COC(=O)c1cccc(NCC=C(C)CCC=C(C)C)c1 test_system="adiponectin promoter" numeric_readout=2.53
compound=COC(=O)c1cccc(NCC=C(C)C)c1 test_system="adiponectin promoter" numeric_readout=2.34
compound=COC(=O)c1ccnc(NCC=C(C)CCC=C(C)C)c1 test_system="adiponectin promoter" numeric_readout=3.06

Source: patent EP2213286A1
